study_system: huPD-L1 (Homo sapiens, UniProt Q9NZQ7)
Sequence (Q9NZQ7 19-290): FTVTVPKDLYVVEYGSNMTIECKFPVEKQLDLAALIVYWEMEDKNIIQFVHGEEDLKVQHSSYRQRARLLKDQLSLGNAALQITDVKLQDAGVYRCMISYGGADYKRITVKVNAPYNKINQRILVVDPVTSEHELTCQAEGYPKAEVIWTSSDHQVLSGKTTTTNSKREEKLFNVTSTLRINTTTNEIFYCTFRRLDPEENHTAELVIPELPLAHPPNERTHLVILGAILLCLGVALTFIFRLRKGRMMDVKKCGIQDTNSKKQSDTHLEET
measurement_description: Flow binding to CHO cells stably expressing PD-L1
Parameters: huCTLA4 and huPD-L1, full-length mammalian surface expression constructs were generated; expressed in transfected cells; host or cells: CHO cells, lentiviral transduction, sorted to >98% purity
condition_notes: Table E11; MFI at 33.3 nM
measured_quantity: Ratio of PDL1:CD28
Answers are plain numbers.

molecule: T13R/Q33R/E35D/M47L/V68M/L85M (protein, CD80 v382 ECD) VIHVTKEVKEVARLSCGHNVSVEELAQTRIYWRKDKKMVLTMMSGDLNIWPEYKNRTIFDITNNLSIMILALRPSDEGTYECVVMKYEKDAFKREHLAEVTLSVKADFPTPSISDFETPTSNIRRIICSTSGGFPEPHLSWLENGEELNAINTTVSQDPETELYAVSSKLDFNMTTNHSFMCLIKYGHLRVNQTFNWNTTKQEHFPDN
measured_quantity: Ratio of PDL1:CD28
endpoint_result: 169.1

--- query ---
Endpoint output: Ratio of PDL1:CD28 of H18Y/E35D/M38I/M47L/V68M/L85M (protein, UniProt P33681 35-288, looked up, variant H18Y E35D M38I M47L V68M L85M) T-lymphocyte activation …: VIHVTKEVKEVATLSCGYNVSVEELAQTRIYWQKDKKIVLTMMSGDLNIWPEYKNRTIFDITNNLSIMILALRPSDEGTYECVVMKYEKDAFKREHLAEVTLSVKADFPTPSISDFEIPTSNIRRIICSTSGGFPEPHLSWLENGEELNAINTTVSQDPETELYAVSSKLDFNMTTNHSFMCLIKYGHLRVNQTFNWNTTKQEHFPDNLLPSWAITLISVNGIFVICCLTYCFAPRCRERRRNERLRRESVRPV . Value?
214.9
